Target Entity: cAMP pathway of MOR receptor (Homo sapiens)
Sequence (P35372 whole entry): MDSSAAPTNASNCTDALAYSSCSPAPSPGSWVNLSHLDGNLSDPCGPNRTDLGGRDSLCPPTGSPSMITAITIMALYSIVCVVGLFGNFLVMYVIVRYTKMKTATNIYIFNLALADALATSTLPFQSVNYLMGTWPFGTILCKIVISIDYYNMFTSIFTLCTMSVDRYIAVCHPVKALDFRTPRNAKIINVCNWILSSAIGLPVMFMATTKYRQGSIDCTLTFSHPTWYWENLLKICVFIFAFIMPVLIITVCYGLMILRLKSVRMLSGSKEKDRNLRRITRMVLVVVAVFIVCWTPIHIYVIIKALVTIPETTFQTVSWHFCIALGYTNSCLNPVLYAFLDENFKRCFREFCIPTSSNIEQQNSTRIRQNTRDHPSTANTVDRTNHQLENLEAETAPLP
Protocol Description: cell-based
Settings: cAMP Hunter HEK293 cells, forskolin-induced cAMP; read-out: EC50 of cAMP levels affected by agonistic effect on MOR
pEC50: −log10 of the molar value.
Use 8 as the dividing line for pEC50, with the line itself on the 1 side and lower values as 0.

# Molecule, Answer Label
rows = [
    ("Fc1ccc(C2(CCNCc3sccc3Cl)CCOC3(CCCC3)C2)nc1 (stereo not drawn)", 0),
    ("FC(F)Oc1ccsc1CNCCC1(c2ccccn2)CCOC2(CCCC2)C1 (stereo not drawn)", 1),
]

---

Target Entity: β-arrestin signaling pathway of MOR (Homo sapiens, UniProt P35372)
Construct: host or cells: HEK293 (PathHunter cell line)
Sequence (P35372 whole entry): as above
Protocol Description: cell-based
Settings: PathHunter HEK293 cells, relative to endorphin MAX control
One threshold, 2%, splits the recorded Emax values: lower ones are 1.0, equal or higher ones are 0.0.

# Compound, Answer Label
rows = [
    ("Clc1ccsc1CNCCC1(c2ccccn2)CCOC2(CCCC2)C1 (centres unmarked) [Example H05]", 1.0),
    ("FC(F)(F)c1ccsc1CNCCC1(c2ccccn2)CCOC2(CCCC2)C1 (centres unmarked) [Example H14]", 1.0),
    ("Cc1cc(F)cnc1C1(CCNCc2ccccc2OC(F)(F)F)CCOC2(CCCC2)C1 (centres unmarked) [Example H10]", 0.0),
    ("FC(F)(F)Oc1cccc(CNCCC2(c3ccccn3)CCOC3(CCCC3)C2)c1 (centres unmarked) [Example H01]", 0.0),
    ("FC(F)(F)c1ccc2c(c1)CN(CCC1(c3ccccn3)CCOC3(CCCC3)C1)CC2 (centres unmarked) [Example H19]", 1.0),
    ("Oc1ccc(CNCCC2(c3ccccn3)CCOC3(CCCC3)C2)c(OC(F)(F)F)c1 (centres unmarked) [Example H15]", 0.0),
    ("FC(F)Oc1ccsc1CNCCC1(c2ccccn2)CCOC2(CCCC2)C1 (centres unmarked) [Example H18]", 1.0),
    ("FC(F)Oc1ccccc1CNCCC1(c2ccccn2)CCOC2(CCCC2)C1 (centres unmarked) [Example H16]", 0.0),
    ("FC(F)(F)Oc1ccc(CNCCC2(c3ccccn3)CCOC3(CCCC3)C2)cc1 (centres unmarked) [Example H06]", 1.0),
    ("Cc1ccc(CNCCC2(c3ccccn3)CCOC3(CCCC3)C2)c(C)c1 (centres unmarked) [Example H08]", 0.0),
    ("FC(F)(F)Oc1ccccc1CNCCC1(c2ccccn2)CCOC2(CCCC2)C1 (centres unmarked) [Example H22]", 0.0),
    ("c1ccc(C2(CCN3CCc4ccsc4C3)CCOC3(CCCC3)C2)nc1 (centres unmarked) [Example H23]", 0.0),
    ("CNc1ccccc1CNCCC1(c2ccccn2)CCOC2(CCCC2)C1 (centres unmarked) [Example H03]", 0.0),
    ("FC(F)(F)Oc1cc(Br)ccc1CNCCC1(c2ccccn2)CCOC2(CCCC2)C1 (centres unmarked) [Example H11]", 0.0),
]

---

Target Entity: μ opioid receptor (MOR) (Homo sapiens, UniProt P35372)
Sequence (P35372 whole entry, species assumed): as the sequence (P35372 whole entry) above
Protocol Description: cell-based
Settings: HEK293 stably expressing μ opioid receptor, FLIPR calcium
Value Kind: EC50 (nM)

# Compound, Readout Unit, Measured Result
records = [
    ("COc1ccsc1CNCC(C)C1(c2ccccn2)CCOC2(CCCC2)C1 (stereo not drawn)", "nM", 1.76),
    ("CNc1ccsc1C(=O)NCCC1(c2ccccn2)CCOC2(CCCC2)C1 (stereo not drawn)", "nM", 10.7),
    ("Clc1ccsc1CNCCC1(c2ccccn2)CCOC2(CCCC2)C1 (stereo not drawn)", "nM", 7.05),
    ("Cc1ccc(CNCCC2(c3ccc(F)cn3)CCOC3(CCCC3)C2)cc1C (stereo not drawn)", "nM", 3.83),
    ("FC(F)Oc1ccsc1CNCCC1(c2ccccn2)CCOC2(CCCC2)C1 (stereo not drawn)", "nM", 7.32),
    ("Oc1ccc(CNCCC2(c3ccccn3)CCOC3(CCCC3)C2)c(OC(F)(F)F)c1 (stereo not drawn)", "nM", 3.32),
    ("FC(F)(F)Oc1c(Br)cccc1CNCCC1(c2ccccn2)CCOC2(CCCC2)C1 (stereo not drawn)", "nM", 6.35),
    ("Cc1c(Cl)cccc1CNCCC1(c2ccc(F)cn2)CCOC2(CCCC2)C1 (stereo not drawn)", "nM", 7.35),
    ("Fc1ccc(C2(CCNCc3sccc3OC(F)F)CCOC3(CCCC3)C2)nc1 (stereo not drawn)", "nM", 5.25),
    ("FC(F)(F)c1ccc2c(c1)CN(CCC1(c3ccccn3)CCOC3(CCCC3)C1)CC2 (stereo not drawn)", "nM", 5.43),
    ("FC(F)Oc1ccccc1CNCCC1(c2ccccn2)CCOC2(CCCC2)C1 (stereo not drawn)", "nM", 9.06),
    ("FC(F)(F)c1ccsc1CNCCC1(c2ccccn2)CCOC2(CCCC2)C1 (stereo not drawn)", "nM", 2.1),
    ("FC(F)(F)Oc1cccc(CNCCC2(c3ccccn3)CCOC3(CCCC3)C2)c1 (stereo not drawn)", "nM", 6.71),
    ("COc1[nH]ncc1CNCCC1(c2ccccn2)CCOC2(CCCC2)C1 (stereo not drawn)", "nM", 2.02),
    ("Fc1ccc(C2(CCNCc3ccccc3OC(F)(F)F)CCOC3(CCCC3)C2)nc1 (stereo not drawn)", "nM", 4.02),
    ("COc1ccc2c(c1)CN(CCC1(c3ccccn3)CCOC3(CCCC3)C1)CC2 (stereo not drawn)", "nM", 3.53),
    ("Fc1ccc(C2(CCNCc3ccccc3OC(F)F)CCOC3(CCCC3)C2)nc1 (stereo not drawn)", "nM", 6.09),
    ("Cc1c(Cl)cccc1CNCCC1(c2ccccn2)CCOC2(CCCC2)C1 (stereo not drawn)", "nM", 6.05),
]
